System: HepG2
Assay: relative viability EC50 (midpoint between 100% and the lowest measured viability); higher = less toxic
Conditions: 72 h
recorded_endpoint: relative viability EC50

[[record]]
compound = "Cc1ncc(CSSCc2cnc(C)c(O)c2CO)c(CO)c1O"
recorded_endpoint = "relative viability EC50"
assay_value = "> 10 µM"

[[record]]
compound = "O=C(Nc1ccc(S(=O)(=O)Nc2nccs2)cc1)C(c1ccccc1)c1ccccc1"
recorded_endpoint = "relative viability EC50"
assay_value = "> 10 µM"

[[record]]
compound = "FCc1ccc(OCCOc2ccc(Cl)cc2Cl)c(Cl)n1"
recorded_endpoint = "relative viability EC50"
assay_value = "> 10 µM"

[[record]]
compound = "Nc1cc(Cl)c(N=C2NCCN2)c(Cl)c1"
recorded_endpoint = "relative viability EC50"
assay_value = "> 10 µM"

[[record]]
compound = "CCCN1CCC[C@@H]2Cc3n[nH]cc3C[C@H]21 [quinpirol-(-)]"
recorded_endpoint = "relative viability EC50"
assay_value = "> 10 µM"

[[record]]
compound = "CN(C)NC(=O)CCC(=O)O [daminozide]"
recorded_endpoint = "relative viability EC50"
assay_value = "> 10 µM"

[[record]]
compound = "CC(C)c1onc(-c2c(Cl)cccc2Cl)c1COc1ccc(/C=C/c2cccc(C(=O)O)c2)c(Cl)c1"
recorded_endpoint = "relative viability EC50"
assay_value = "> 10 µM"

[[record]]
compound = "CCC(c1ccccc1)c1c(O)c2ccccc2oc1=O (stereo not given)"
recorded_endpoint = "relative viability EC50"
assay_value = "> 10 µM"

[[record]]
compound = "CC(C)(C)c1cc(C(=O)/C(C#N)=N/Nc2cccc(Cl)c2)no1"
recorded_endpoint = "relative viability EC50"
assay_value = "3.4 µM"

[[record]]
compound = "CN(C)CCCNC(=O)c1ccc(-c2cc(O)c3ncccc3c2)cc1"
recorded_endpoint = "relative viability EC50"
assay_value = "3.52 µM"

[[record]]
compound = "CNCC[C@H](Oc1cccc2ccccc12)c1cccs1"
recorded_endpoint = "relative viability EC50"
assay_value = "> 10 µM"

[[record]]
compound = "Cc1cc(NC(=O)C(c2ccccc2)N2CCCc3ccccc32)no1 (stereo not given)"
recorded_endpoint = "relative viability EC50"
assay_value = "> 10 µM"

[[record]]
compound = "COc1cc2nccc(Oc3ccc(NC(=O)Nc4ccc(F)cc4F)c(F)c3)c2cc1OC"
recorded_endpoint = "relative viability EC50"
assay_value = "> 10 µM"

[[record]]
compound = "CCOCCOc1ccccc1C(N)=O [etosalamide]"
recorded_endpoint = "relative viability EC50"
assay_value = "> 10 µM"

[[record]]
compound = "CC(=O)Nc1ncc([N+](=O)[O-])s1 [nithiamide]"
recorded_endpoint = "relative viability EC50"
assay_value = "> 10 µM"

[[record]]
compound = "O=c1[nH]c2ccccc2n1CCCN1CCC(n2c(=O)[nH]c3cc(Cl)ccc32)CC1"
recorded_endpoint = "relative viability EC50"
assay_value = "> 10 µM"

[[record]]
compound = "O=C(CN1CCNCC1)NC1CCCCC1"
recorded_endpoint = "relative viability EC50"
assay_value = "> 10 µM"

[[record]]
compound = "CCCCCCCCCCCCOCCOCCOCCOCCOCCOCCOCCOCCOCCO"
recorded_endpoint = "relative viability EC50"
assay_value = "3.8 µM"

[[record]]
compound = "Cc1ccc2c(-c3ccccc3)nc(=O)n(C(C)C)c2c1"
recorded_endpoint = "relative viability EC50"
assay_value = "> 10 µM"

[[record]]
compound = "Nc1nc(O)c2nc(Br)n([C@@H]3O[C@@H]4COP(=O)(O)O[C@H]4[C@H]3O)c2n1"
recorded_endpoint = "relative viability EC50"
assay_value = "> 10 µM"

